Recorded values, source ChEMBL document CHEMBL3217459.

Tested on: MCF7
Experiment: Cytotoxicity against human MCF7 cells assessed as cell viability at 4 uM after 48 hrs by MTT assay
Type: functional
endpoint: OD
Respond with the number and no other words.

A selection of reference data follows.
Cc1cc(C#Cc2ccc(C(C)(C)C)cc2)ccc1-n1c(/C=C/c2ccnc3ccccc23)nc2ccccc2c1=O = 0.24
Cc1cc(C#Cc2ccc(C(C)(C)C)cc2)ccc1-n1c(/C=C/c2ccc([N+](=O)[O-])o2)nc2ccccc2c1=O = 0.4
Cc1cc(C#Cc2ccccc2)ccc1-n1c(/C=C/c2ccc([N+](=O)[O-])o2)nc2ccccc2c1=O = 0.37

query: Form field: reported OD of COc1ccc(/C=C/c2nc3ccccc3c(=O)n2-c2ccc(C#Cc3ccc(C(C)(C)C)cc3)cc2C)cc1OC
result: 0.27

query: Again, but for Cc1cc(C#Cc2ccccc2)ccc1-n1c(/C=C/c2ccc3ccccc3c2)nc2ccccc2c1=O
result: 0.43

query: Again, but for Cc1cc(C#Cc2ccccc2)ccc1-n1c(/C=C/c2cc(O)cc(O)c2)nc2ccccc2c1=O
result: 0.73

query: Again, but for COc1cc(/C=C/c2nc3ccccc3c(=O)n2-c2ccc(C#Cc3ccc(C(C)(C)C)cc3)cc2C)cc(OC)c1OC
result: 0.55

query: Again, but for Cc1cc(C#Cc2ccccc2)ccc1-n1c(/C=C/c2ccc(F)cc2)nc2ccccc2c1=O
result: 0.61

query: Again, but for COc1ccc2cc(C#Cc3ccc(-n4c(/C=C/c5ccnc6ccccc56)nc5ccccc5c4=O)c(C)c3)ccc2c1
result: 0.5

query: Again, but for COc1cc(/C=C/c2nc3ccccc3c(=O)n2-c2ccc(C#Cc3ccccc3)cc2C)cc(OC)c1
result: 0.61

query: Again, but for COc1ccc(/C=C/c2nc3ccccc3c(=O)n2-c2ccc(C#Cc3ccc(C(C)(C)C)cc3)cc2C)cc1O
result: 0.27

query: Again, but for COc1ccc2cc(C#Cc3ccc(-n4c(/C=C/c5cc(OC)c(OC)c(OC)c5)nc5ccccc5c4=O)c(C)c3)ccc2c1
result: 0.58

query: Again, but for Cc1cc(C#Cc2ccc(C(C)(C)C)cc2)ccc1-n1c(/C=C/c2ccc3ccccc3c2)nc2ccccc2c1=O
result: 0.61

query: Again, but for Cc1cc(C#Cc2ccc(C(C)(C)C)cc2)ccc1-n1c(/C=C/c2c(Cl)cccc2Cl)nc2ccccc2c1=O
result: 0.39

----------
Entries and their OD
System: MCF7
Assay: Cytotoxicity against human MCF7 cells assessed as cell viability at 4 uM after 48 hrs by MTT assay
Assay type: functional

Cc1ccccc1/C=C/c1nc2ccccc2c(=O)n1-c1ccc(C#Cc2ccccc2)cc1C = 0.51
Cc1cc(C#Cc2ccc(C(C)(C)C)cc2)ccc1-n1c(/C=C/c2ccc(Cl)cc2)nc2ccccc2c1=O = 0.59
Cc1cc(C#Cc2ccc(C(C)(C)C)cc2)ccc1-n1c(/C=C/c2cc(O)cc(O)c2)nc2ccccc2c1=O = 0.43
Cc1cc(C#Cc2ccccc2)ccc1-n1c(/C=C/c2ccc(O)c([N+](=O)[O-])c2)nc2ccccc2c1=O = 0.51
COc1ccc2cc(C#Cc3ccc(-n4c(/C=C/c5c(Cl)cccc5Cl)nc5ccccc5c4=O)c(C)c3)ccc2c1 = 0.63
Cc1cc(C#Cc2ccccc2)ccc1-n1c(/C=C/c2ccc(Cl)cc2)nc2ccccc2c1=O = 0.48
COc1ccc2cc(C#Cc3ccc(-n4c(/C=C/c5ccc(OC)c(OC)c5)nc5ccccc5c4=O)c(C)c3)ccc2c1 = 0.6

Here is another compound to look at.
query: Any idea what OD came out for Cc1cc(C#Cc2ccc(C(C)(C)C)cc2)ccc1-n1c(/C=C/c2ccc3c(c2)OCO3)nc2ccccc2c1=O on MCF7?
result: 0.52

----------
Entries and their OD
Tested on: MCF7
Test: Cytotoxicity against human MCF7 cells assessed as cell viability at 4 uM after 48 hrs by MTT assay
Type: functional
Respond with the number and no other words.

A selection of reference data follows.
COc1ccc2cc(C#Cc3ccc(-n4c(/C=C/c5ccc(F)cc5)nc5ccccc5c4=O)c(C)c3)ccc2c1 = 0.57
Cc1cc(C#Cc2ccccc2)ccc1-n1c(/C=C/c2ccc(O)cc2)nc2ccccc2c1=O = 0.58
COc1ccc2cc(C#Cc3ccc(-n4c(/C=C/c5ccc([N+](=O)[O-])o5)nc5ccccc5c4=O)c(C)c3)ccc2c1 = 0.58
COc1cc(/C=C/c2nc3ccccc3c(=O)n2-c2ccc(C#Cc3ccccc3)cc2C)cc(OC)c1OC = 0.27
Cc1cc(C#Cc2ccc(C(C)(C)C)cc2)ccc1-n1c(/C=C/c2ccc([N+](=O)[O-])s2)nc2ccccc2c1=O = 0.25

query: Any idea what OD came out for COc1ccc(/C=C/c2nc3ccccc3c(=O)n2-c2ccc(C#Cc3ccccc3)cc2C)cc1 on MCF7?
result: 0.73

query: Again, but for Cc1cc(C#Cc2ccc(C(C)(C)C)cc2)ccc1-n1c(/C=C/c2ccc(O)cc2)nc2ccccc2c1=O
result: 0.52

query: Again, but for COc1ccc2cc(C#Cc3ccc(-n4c(/C=C/c5ccc6ccccc6c5)nc5ccccc5c4=O)c(C)c3)ccc2c1
result: 0.46

----------
Test system: MDA-MB-231
Test: Cytotoxicity against human MDA-MB-231 cells assessed as cell viability after 48 hrs by MTT assay
Type: functional, cell-based
Conditions: MDA-MB-231, 48 h
endpoint: pIC50
In textbook form, pIC50 equals minus log to base ten of the concentration in mol/L.

A selection of reference data follows.
Cc1cc(C#Cc2ccc(C(C)(C)C)cc2)ccc1-n1c(/C=C/c2ccnc3ccccc23)nc2ccccc2c1=O = 5.26
Cc1cc(C#Cc2ccc(C(C)(C)C)cc2)ccc1-n1c(/C=C/c2c(Cl)cccc2Cl)nc2ccccc2c1=O = 5.26
COc1cccc2c1C(=O)c1c(O)c3c(c(O)c1C2=O)C[C@@](O)(C(=O)CO)C[C@@H]3O[C@H]1C[C@H](N)[C@H](O)[C@H](C)O1 = 6.80
COc1cc(/C=C/c2nc3ccccc3c(=O)n2-c2ccc(C#Cc3ccccc3)cc2C)cc(OC)c1OC = 5.25

query: Form field: reported pIC50 of COc1ccc(/C=C/c2nc3ccccc3c(=O)n2-c2ccc(C#Cc3ccc(C(C)(C)C)cc3)cc2C)cc1OC
result: 5.23

query: Again, but for COc1ccc(/C=C/c2nc3ccccc3c(=O)n2-c2ccc(C#Cc3ccc(C(C)(C)C)cc3)cc2C)cc1O
result: 5.24

----------
Tested on: MCF7
Test: Induction of DNA damage in human MCF7 cells assessed as decrease in TRF2 level measured at 4 uM after 24 hrs by Western blot analysis
Format: functional, cell-based
Active and inactive are the calls of the source. The rule behind the calls is not given here.
endpoint: inhibition

Cc1cc(C#Cc2ccc(C(C)(C)C)cc2)ccc1-n1c(/C=C/c2c(Cl)cccc2Cl)nc2ccccc2c1=O = Active
COc1cc(/C=C/c2nc3ccccc3c(=O)n2-c2ccc(C#Cc3ccccc3)cc2C)cc(OC)c1OC = Active
COc1ccc(/C=C/c2nc3ccccc3c(=O)n2-c2ccc(C#Cc3ccc(C(C)(C)C)cc3)cc2C)cc1OC = Active
COc1ccc(/C=C/c2nc3ccccc3c(=O)n2-c2ccc(C#Cc3ccc(C(C)(C)C)cc3)cc2C)cc1O = Active

Here is another compound to look at.
query: Form field: reported inhibition of Cc1cc(C#Cc2ccc(C(C)(C)C)cc2)ccc1-n1c(/C=C/c2ccnc3ccccc23)nc2ccccc2c1=O
result: Active

----------
Assay: Cytotoxicity against human MIAPaCa2 cells assessed as cell viability after 48 hrs by MTT assay
Format: functional, cell-based
Details: MIA PaCa-2, 48 h
endpoint: pIC50
In textbook form, pIC50 equals minus log to base ten of the concentration in mol/L.

A selection of reference data follows.
COc1cccc2c1C(=O)c1c(O)c3c(c(O)c1C2=O)C[C@@](O)(C(=O)CO)C[C@@H]3O[C@H]1C[C@H](N)[C@H](O)[C@H](C)O1 = 6.85
Cc1cc(C#Cc2ccc(C(C)(C)C)cc2)ccc1-n1c(/C=C/c2c(Cl)cccc2Cl)nc2ccccc2c1=O = 5.28
Cc1cc(C#Cc2ccc(C(C)(C)C)cc2)ccc1-n1c(/C=C/c2ccnc3ccccc23)nc2ccccc2c1=O = 5.28
COc1ccc(/C=C/c2nc3ccccc3c(=O)n2-c2ccc(C#Cc3ccc(C(C)(C)C)cc3)cc2C)cc1OC = 5.23
COc1cc(/C=C/c2nc3ccccc3c(=O)n2-c2ccc(C#Cc3ccccc3)cc2C)cc(OC)c1OC = 5.22

Here is another compound to look at.
query: Form field: reported pIC50 of COc1ccc(/C=C/c2nc3ccccc3c(=O)n2-c2ccc(C#Cc3ccc(C(C)(C)C)cc3)cc2C)cc1O
result: 5.17

----------
System: A549
Assay: Cytotoxicity against human A549 cells assessed as cell viability after 48 hrs by MTT assay
Format: functional, cell-based
Details: A549, 48 h
Note to self: IC50 under 6 µM means satisfied, ties and anything higher get not satisfied.

Please review the following examples before continuing.
COc1cccc2c1C(=O)c1c(O)c3c(c(O)c1C2=O)C[C@@](O)(C(=O)CO)C[C@@H]3O[C@H]1C[C@H](N)[C@H](O)[C@H](C)O1 = satisfied
COc1cc(/C=C/c2nc3ccccc3c(=O)n2-c2ccc(C#Cc3ccccc3)cc2C)cc(OC)c1OC = not satisfied
COc1ccc(/C=C/c2nc3ccccc3c(=O)n2-c2ccc(C#Cc3ccc(C(C)(C)C)cc3)cc2C)cc1O = satisfied

query: IC50 under 6 µM? Item: Cc1cc(C#Cc2ccc(C(C)(C)C)cc2)ccc1-n1c(/C=C/c2c(Cl)cccc2Cl)nc2ccccc2c1=O
result: satisfied
